assay: Lipophilicity, log D of the compound by HPLC analysis; format: physicochemical; settings: read-out: logD
PROPERTY MEASURED: logD

| COMPOUND | PROPERTY MEASURED | OBSERVED MEASUREMENT |
| --- | --- | --- |
| CC(C)(C)NC(=O)C1c2c(O)cccc2C(=O)N1Cc1ccccc1-c1ccccc1 (racemic) | logD | 4.6 |
| CC(C)(CN1C(=O)c2ccccc2C1C(=O)NCCCF)c1ccc(Cl)cc1 (single isomer, unassigned; enantiomer 1) | logD | 4.2 |
| COc1ccc2c(c1C)C(=O)N(Cc1ccccc1-c1ccccc1)C2C(=O)NC(C)(C)C (racemic) | logD | 5.6 |
| CC(C)(C)NC(=O)C1c2ccccc2C(=O)N1Cc1ccccc1-c1ccccc1 (racemic) | logD | 4.7 |

---

assay: Absolute bioavailability in rat; type: ADME, organism-based; conditions: in vivo
PROPERTY MEASURED: bioavailability (%)

| COMPOUND | UNIT STRING | bioavailability |
| --- | --- | --- |
| CC(C)(CN1C(=O)c2ccccc2C1C(=O)NCCCF)c1ccc(Cl)cc1 (single isomer, unassigned; enantiomer 1) | % | 58 |
| CCCNC(=O)C1c2ccccc2C(=O)N1CC(C)c1ccc(Cl)cc1 (single isomer, unassigned; isomer 1) | % | 81 |

---

test: Intrinsic clearance in human liver microsomes; type: ADME; settings: liver microsomes, read-out: CLH
PROPERTY MEASURED: microsomal CLint (µL/min/mg)

| MOLECULE | microsomal CLint (µL/min/mg) |
| --- | --- |
| CCCCNC(=O)C1c2ccccc2C(=O)N1CC(C)(O)c1ccc(Cl)cc1 (stereo not drawn) | 64 |
| CC(c1ccccc1)N1C(=O)c2ccccc2C1C(=O)NC(C)(C)CO (racemic) | 34 |
| CCCCNC(=O)C1c2ccccc2C(=O)N1CC(C)c1ccc(F)cc1 (racemic) | 180 |
| CC(C)(CN1C(=O)c2ccccc2C1C(=O)NCCCF)c1ccc(Cl)cc1 (single isomer, unassigned; enantiomer 1) | 14 |
| CC(C)(C)NC(=O)C1c2ccccc2C(=O)N1Cc1cc(F)ccc1-c1ccc(F)cc1 (single isomer, unassigned; enantiomer 1) | 49 |

(a) CC(C)(CN1C(=O)c2ccccc2C1C(=O)NCCCC(F)F)c1ccc(F)cc1 (stereo not drawn)
(b) CC(C)(C)NC(=O)C1c2ccccc2C(=O)N1Cc1ccc(F)cc1-c1ccc(F)cc1 (stereo not drawn)
Task: Among a and b , whose measured microsomal CLint is the smaller figure? Indicate your choice by writing its label.
Output: a

(1) CC(C)(C)NC(=O)C1c2cc(Cl)ccc2C(=O)N1C(c1cccnc1)c1cccnc1 (racemic)
(2) CCCNC(=O)C1c2ccccc2C(=O)N1CC(C)c1ccc(Cl)cc1 (single isomer, unassigned; isomer 1)
Task: Identify the entry with the larger microsomal CLint. Options: 1 and 2 Indicate your choice by writing its label.
Output: 2
(2: 99 µL/min/mg, 1: 62 µL/min/mg)

(I) CC(C)(C)NC(=O)C1c2ccccc2C(=O)N1Cc1ccccc1-c1ccc(F)cc1 (stereo not drawn)
(II) CC(C)(C)NC(=O)C1c2ccccc2C(=O)N1Cc1cc(F)ccc1-c1ccccc1 (single isomer, unassigned; enantiomer 1)
Task: Among I and II , whose measured microsomal CLint is the smaller figure? Indicate your choice by writing its label.
Output: I
(I: 53 µL/min/mg, II: 102 µL/min/mg)

(A) CC(C)(C)NC(=O)C1c2ccc(NS(C)(=O)=O)cc2C(=O)N1Cc1ccccc1-c1ccccc1 (racemic)
(B) Cc1c(NS(C)(=O)=O)ccc2c1C(=O)N(Cc1ccccc1-c1ccccc1)C2C(=O)NC(C)(C)C (racemic)
Task: Identify the entry with the larger microsomal CLint. Options: A and B Indicate your choice by writing its label.
Output: B
(B: 88 µL/min/mg, A: 59 µL/min/mg)

---

# collection of IC50 values tested on Voltage-gated inwardly rectifying potassium channel KCNH2 (Homo sapiens)
# Sequence (Q12809 whole entry): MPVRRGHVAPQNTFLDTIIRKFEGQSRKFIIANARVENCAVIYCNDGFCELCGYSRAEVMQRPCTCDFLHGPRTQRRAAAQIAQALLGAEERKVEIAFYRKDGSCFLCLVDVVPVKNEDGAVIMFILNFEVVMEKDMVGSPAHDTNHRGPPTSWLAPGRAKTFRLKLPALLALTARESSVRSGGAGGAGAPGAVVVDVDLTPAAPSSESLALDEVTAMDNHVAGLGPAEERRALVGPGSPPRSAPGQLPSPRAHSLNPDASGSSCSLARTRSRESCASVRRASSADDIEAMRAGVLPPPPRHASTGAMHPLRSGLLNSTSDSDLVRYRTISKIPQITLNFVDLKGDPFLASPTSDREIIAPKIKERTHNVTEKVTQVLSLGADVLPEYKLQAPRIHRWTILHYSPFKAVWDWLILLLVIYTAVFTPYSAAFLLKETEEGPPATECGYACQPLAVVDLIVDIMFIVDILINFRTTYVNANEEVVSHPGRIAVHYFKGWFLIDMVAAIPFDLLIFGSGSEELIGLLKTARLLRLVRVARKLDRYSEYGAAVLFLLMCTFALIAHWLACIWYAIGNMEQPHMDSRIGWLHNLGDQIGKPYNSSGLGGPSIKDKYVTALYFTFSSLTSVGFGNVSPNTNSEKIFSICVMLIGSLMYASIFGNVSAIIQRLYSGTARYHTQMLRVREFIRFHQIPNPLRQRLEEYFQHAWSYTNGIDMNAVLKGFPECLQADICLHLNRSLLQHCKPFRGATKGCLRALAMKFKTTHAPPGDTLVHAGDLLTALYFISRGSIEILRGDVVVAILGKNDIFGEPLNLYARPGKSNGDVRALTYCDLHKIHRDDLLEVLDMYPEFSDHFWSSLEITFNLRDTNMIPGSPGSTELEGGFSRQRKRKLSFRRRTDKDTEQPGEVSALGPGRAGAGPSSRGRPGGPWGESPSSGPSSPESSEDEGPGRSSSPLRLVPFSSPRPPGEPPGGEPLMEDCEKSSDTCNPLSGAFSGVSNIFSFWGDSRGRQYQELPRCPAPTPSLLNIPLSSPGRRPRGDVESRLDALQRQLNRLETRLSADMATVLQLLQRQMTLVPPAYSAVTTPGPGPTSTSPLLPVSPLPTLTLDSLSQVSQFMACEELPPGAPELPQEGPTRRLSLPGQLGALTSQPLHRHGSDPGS

| MOLECULE | OBSERVED MEASUREMENT |
| --- | --- |
| COCCOCCNC(=O)C1c2cc(F)ccc2C(=O)N1CC(C)c1ccc(Cl)cc1 (racemic) | > 33 µM |
| Cc1c(O)ccc2c1C(=O)N(Cc1ccccc1-c1ccccc1)C2C(=O)NC(C)(C)C (racemic) | 46 µM |
| CC(C)(C)NC(=O)C1c2ccccc2C(=O)N1Cc1ccc(F)cc1-c1ccccc1 (single isomer, unassigned; enantiomer 1) | > 33 µM |

Task: Give the measured IC50 of CC(C)(C)NC(=O)C1c2ccccc2C(=O)N1Cc1ccccc1-c1ccc(F)c(F)c1 (stereo in doubt; 16E1) .
Output: > 33 µM

Task: Continue with CC(C)(C)NC(=O)C1c2cc(C#N)ccc2C(=O)N1Cc1ccccc1-c1ccccc1 (racemic)
Output: > 33 µM

Task: Continue with CC(C)(CN1C(=O)c2ccccc2C1C(=O)NCCCF)c1ccc(Cl)cc1 (single isomer, unassigned; enantiomer 1)
Output: > 33 µM

Task: Continue with CC(C)(C)NC(=O)C1c2ccccc2C(=O)N1Cc1ccccc1-c1ccccc1 (single isomer, unassigned; enantiomer 2)
Output: > 33 µM

Task: Continue with COc1ccc2c(c1)C(=O)N(Cc1ccccc1-c1ccccc1)C2C(=O)NC(C)(C)C (racemic)
Output: 30 µM

Task: Continue with CC(c1ccccc1)N1C(=O)c2ccccc2C1C(=O)NC(C)(C)CO (racemic)
Output: > 33 µM

---

target: Potassium voltage-gated channel subfamily A member 5 (Homo sapiens, UniProt P22460); experiment: Inhibition of human Kv1.5 channel by QPatch-clamp method
Sequence (P22460 whole entry): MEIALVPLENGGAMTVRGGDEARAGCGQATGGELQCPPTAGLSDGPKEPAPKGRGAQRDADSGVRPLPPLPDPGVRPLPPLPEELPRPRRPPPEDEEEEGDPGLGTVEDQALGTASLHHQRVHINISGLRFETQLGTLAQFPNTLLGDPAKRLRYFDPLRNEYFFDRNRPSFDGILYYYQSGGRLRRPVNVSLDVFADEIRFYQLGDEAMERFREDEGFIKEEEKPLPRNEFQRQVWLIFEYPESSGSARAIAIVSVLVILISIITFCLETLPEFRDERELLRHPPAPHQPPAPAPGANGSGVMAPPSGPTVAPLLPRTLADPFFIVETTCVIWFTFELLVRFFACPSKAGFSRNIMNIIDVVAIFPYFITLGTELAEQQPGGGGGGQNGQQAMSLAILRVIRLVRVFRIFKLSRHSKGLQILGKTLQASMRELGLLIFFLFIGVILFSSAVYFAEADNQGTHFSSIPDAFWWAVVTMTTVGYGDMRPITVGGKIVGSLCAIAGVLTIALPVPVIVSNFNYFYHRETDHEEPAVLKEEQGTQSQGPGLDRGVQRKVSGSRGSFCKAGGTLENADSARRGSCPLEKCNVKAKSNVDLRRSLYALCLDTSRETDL
pIC50: −log10 of the molar value.
PROPERTY MEASURED: pIC50

Recorded pIC50, per entry:
| COMPOUND | PROPERTY MEASURED | OBSERVED MEASUREMENT |
| --- | --- | --- |
| CC(C)(C)NC(=O)C1c2ccccc2C(=O)N1Cc1cc(F)ccc1-c1ccccc1 (single isomer, unassigned; enantiomer 2) | pIC50 | 5.80 |
| CC(C)(CN1C(=O)c2ccccc2C1C(=O)NCCCF)c1ccc(Cl)cc1 (stereo in doubt; 23) | pIC50 | 6.30 |

(P) CC(C)(CN1C(=O)c2ccccc2C1C(=O)NCCCF)c1ccc(Cl)cc1 (single isomer, unassigned; enantiomer 1)
(Q) CC(C)(C)NC(=O)C1c2ccccc2C(=O)N1Cc1ccc(F)cc1-c1ccccc1 (single isomer, unassigned)
Task: Identify the entry with the larger pIC50. Options: P and Q Indicate your choice by writing its label.
Output: P
(P: 6.15, Q: 5.77)

---

test system: Mus musculus; assay: In vivo inhibition of Kv1.5 channel in BaLBc mouse assessed as unbound steady-state plasma concentration required to increase QT-interval by 30% at 20 umol/kg,iv for 15 mins; format: functional
Reported Activity values are given for each entry in this list.
Form entry: value (µM) — number only.

| COMPOUND | TARGET | UNIT STRING | Activity |
| --- | --- | --- | --- |
| CCCNC(=O)C1c2ccccc2C(=O)N1CC(C)c1ccc(Cl)cc1 (single isomer, unassigned; isomer 2) | Mus musculus | µM | 0.4 |

Task: I'm curious: which Activity was measured for CC(C)(C)NC(=O)C1c2ccccc2C(=O)N1Cc1cc(F)ccc1-c1ccc(F)cc1 (single isomer, unassigned; enantiomer 2) tested on Mus musculus?
Output: 0.28

Task: Continue with CC(C)(C)NC(=O)C1c2ccccc2C(=O)N1Cc1ccccc1-c1ccc(F)c(F)c1 (stereo in doubt; 16E1)
Output: 0.066

---

biological target: Potassium voltage-gated channel subfamily A member 5 (Homo sapiens, UniProt P22460); test: Inhibition of human Kv1.5 channel by Rb-flux assay
PROPERTY MEASURED: IC50 (µM)

Recorded IC50, per entry:
| COMPOUND | OBSERVED MEASUREMENT |
| --- | --- |
| CC(C)(C)NC(=O)C1c2ccc(O)cc2C(=O)N1Cc1ccccc1-c1ccccc1 (racemic) | 8.4 |
| Cc1c(O)ccc2c1C(=O)N(Cc1ccccc1-c1ccccc1)C2C(=O)NC(C)(C)C (racemic) | 3.2 |
| CC(C)(C)NC(=O)C1c2ccc(NS(C)(=O)=O)cc2C(=O)N1Cc1ccccc1-c1ccccc1 (racemic) | 17 |
| Cc1c(NS(C)(=O)=O)ccc2c1C(=O)N(Cc1ccccc1-c1ccccc1)C2C(=O)NC(C)(C)C (racemic) | 31 |
| O=C(NCc1ccncc1)C1c2ccccc2C(=O)N1Cc1ccccc1-c1ccccc1 (racemic) | 13 |
| CC(C)(C)NC(=O)C1c2ccc(C#N)cc2C(=O)N1Cc1ccccc1-c1ccccc1 (racemic) | 37 |
| COc1ccc2c(c1)C(=O)N(Cc1ccccc1-c1ccccc1)C2C(=O)NC(C)(C)C (racemic) | 11.3 |
| Cc1c(O)ccc2c1C(=O)N(Cc1ccccc1-c1ccccc1)C2C(=O)NC(C)(C)C (single isomer, unassigned) | 1.1 |
| Cc1c(OS(C)(=O)=O)ccc2c1C(=O)N(Cc1ccccc1-c1ccccc1)C2C(=O)NC(C)(C)C (racemic) | 10.5 |

(I) Cc1c(O)ccc2c1C(=O)N(Cc1ccccc1-c1ccccc1)C2C(=O)NC(C)(C)C (single isomer, unassigned; enantiomer 2)
(II) CCCCNC(=O)C1c2ccccc2C(=O)N1CC(C)c1ccc(Cl)cc1 (racemic)
(III) Cc1c(OC(F)F)ccc2c1C(=O)N(Cc1ccccc1-c1ccccc1)C2C(=O)NC(C)(C)C (racemic)
Task: Order the 3 compounds from highest to lowest IC50. Sort the labels as requested; that list is your answer.
Output: I, III, II
(I: 17 µM, III: 1.2 µM, II: 0.7 µM)
